Listed next: entries and their corresponding pEC50.
# Measurement Target: AT1R (Homo sapiens, UniProt P30556)
# Sequence (P30556 whole entry): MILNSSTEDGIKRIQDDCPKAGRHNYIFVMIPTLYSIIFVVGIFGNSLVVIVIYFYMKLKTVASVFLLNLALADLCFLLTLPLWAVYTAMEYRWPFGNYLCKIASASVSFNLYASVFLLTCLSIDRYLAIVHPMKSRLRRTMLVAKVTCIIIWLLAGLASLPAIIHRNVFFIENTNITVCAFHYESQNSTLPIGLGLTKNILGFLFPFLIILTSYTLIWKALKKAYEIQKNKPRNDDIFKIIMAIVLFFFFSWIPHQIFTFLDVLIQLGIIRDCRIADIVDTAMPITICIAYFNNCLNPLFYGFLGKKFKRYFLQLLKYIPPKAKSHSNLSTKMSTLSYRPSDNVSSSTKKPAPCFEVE
# Assay Protocol: β-arrestin2 recruitment BRET (β-arrestin2-RLucII/rGFP-CAAX) in HEK293 cells expressing AT1R
# Format: cell-based
# Parameters: expressed in transfected cells; host or cells: HEK293 cells, transient PEI transfection
# Run Parameters: HEK293 cells transiently expressing AT1R; β-arrestin2-RLucII/rGFP-CAAX BRET; read 10 min after ligand; mean ± SEM of at least three to five independent experiments; SEM; read-out: EC50 βarr2
Peptide text beside a SMILES is read from it.
Worth noting: pEC50 values are minus log10 of concentrations stated in mol/L.

# example entries with known answers
{"columns": ["Compound", "Measurement Target", "pEC50"],
 "data": [
  ["CC[C@H](C)[C@H](NC(=O)[C@H](Cc1ccc(O)cc1)NC(=O)[C@@H](NC(=O)[C@H](CCCNC(=N)N)NC(=O)[C@@H](N)CC(=O)O)C(C)C)C(=O)N[C@@H](Cc1c[nH]cn1)C(=O)N1CCC[C@H]1C(=O)N[C@@H](CC1CCCCC1)C(=O)O", "AT1R (Homo sapiens, UniProt P30556)", 8.85],
  ["CC[C@H](C)[C@H](NC(=O)[C@H](Cc1ccc(O)cc1)NC(=O)[C@@H](NC(=O)[C@H](CCCNC(=N)N)NC(=O)[C@@H](N)CC(=O)O)C(C)C)C(=O)N[C@@H](Cc1c[nH]cn1)C(=O)N1CCC[C@H]1C(=O)N[C@@H](Cc1cscn1)C(=O)O", "AT1R (Homo sapiens, UniProt P30556)", 8.72]
]}

Continue with the next compound.
Provide pEC50 value for the following compound: CC[C@H](C)[C@H](NC(=O)[C@H](Cc1ccc(O)cc1)NC(=O)[C@@H](NC(=O)[C@H](CCCNC(=N)N)NC(=O)[C@@H](N)CC(=O)O)C(C)C)C(=O)N[C@@H](Cc1c[nH]cn1)C(=O)N1CCC[C@H]1C(=O)N[C@@H](CCC(=O)O)C(=O)O [compound 6] (H-DRVYIHPE-OH; N-terminus assumed)
6.02
